# System: HOP-18 NSCLC
# measurementDescription: NCI tumour cell line growth inhibition, 48 h
Readings of TGI for the listed molecules
// note: answer is a bare numeric in µM

- smiles: "CCN(CC)CCCNc1ccc2nnn3c4ccc(O)cc4c(=O)c1c23"
  quantitativeResult: 29.8
- smiles: "CCOC(=O)CCC(=O)C1c2cccc(O)c2C(=O)c2c(O)cccc21"
  quantitativeResult: 3.33

Shift focus to the following entry.
Specify the recorded TGI for O=C1C=C(c2c(O)ccc3ccccc23)c2ccccc2C1=O , system: HOP-18 NSCLC.
23.3

###

# Test system: HCC-2998 colon
# measurementDescription: NCI tumour cell line growth inhibition, 48 h
quantityMeasured: TGI (µM)
// note: answer is a bare numeric in µM

Some compounds with known TGI results, for comparison:
- compound: "Cc1[nH]c(-c2ccccc2)c(-c2ccc(Cl)cc2)c1C(=O)ONC(=O)c1ccccc1"
  targetEntity: "HCC-2998 colon"
  quantitativeResult: 16.2
- compound: "Cc1ccc(S(=O)(=O)N2CCN(CCN(C)CCN3CCN(S(=O)(=O)c4ccc(C)cc4)CC3)CC2)cc1"
  targetEntity: "HCC-2998 colon"
  quantitativeResult: 29.4
- compound: "O=[N+]([O-])c1c(/C=N/Nc2ccccc2)oc(-c2ccc3c(c2)OCO3)c1-c1ccc2c(c1)OCO2"
  targetEntity: "HCC-2998 colon"
  quantitativeResult: 34.3

Shift focus to the following entry.
Specify the recorded TGI for COc1cc(OC2OC(C)C(O)C(O)C2O)cc2oc(-c3ccc(O)cc3)c(CC=C(C)C)c(=O)c12 (centres undefined) , system: HCC-2998 colon.
40.8

Each recorded value in this set is attributed to PubChem BioAssay (NCI).
